Where do these numbers come from? They come from ChEMBL document CHEMBL4689842.

# Tested on: U2OS
# procedure.text: Multiplex assay against U2OS
# Format: toxicity, cell-based
# applied.conditions: human, 12 h, 10 µM, compound concentration 10 uM, replicate 2
assay.metric: Population Hoechst High Intensity Objects (%)
Write down the numeric answer in % and omit the unit.

Solved entries (count: 5):
* CNCc1ccc(-c2cc(-c3nc(-c4ccc(S(=O)(=O)C(C)C)cc4)cnc3N)on2)cc1 | 45
* CC(C)(O)CNc1ncc(-c2ccnc(Nc3ccnc(Cl)c3)n2)c(CC2CC2)n1 | 7
* C=CC(=O)Nc1cccc(C(=O)Nc2ccc(Nc3cc(-c4[nH]c(SC)nc4C)ccn3)cc2)c1 | 18
* O=C1NCN(c2ccccc2)C12CCN(CCCOc1ccc(F)cc1)CC2 [SPIRAMIDE] | 8
* Cl.N#Cc1ccc2[nH]cc(CCCCN3CCN(c4ccc5oc(C(N)=O)cc5c4)CC3)c2c1 [VILAZODONE HYDROCHLORIDE] | 10

Prompt: Fill in reported Population Hoechst High Intensity Objects (%) for this entry: COc1cc(-n2cnc3cc(-c4ccc(Cl)cc4)sc3c2=O)ccc1OCCN1CCCC1
Response: 8

Prompt: Fill in reported Population Hoechst High Intensity Objects (%) for this entry: COc1cc2nccc(Oc3ccc(NC(=O)Nc4cc(C)on4)c(Cl)c3)c2cc1OC.O
Response: 3

Prompt: Fill in reported Population Hoechst High Intensity Objects (%) for this entry: CN(C)C(=O)/C(C#N)=C/c1ccc(-c2nc3cnc4[nH]ccc4c3n2C2CCCCC2)o1
Response: 54

Prompt: Fill in reported Population Hoechst High Intensity Objects (%) for this entry: OC1(c2ccc(Cl)cc2)CCN(Cc2c[nH]c3ccccc23)CC1
Response: 3

Prompt: Fill in reported Population Hoechst High Intensity Objects (%) for this entry: CN1CCCC(n2nc(Cc3ccc(Cl)cc3)c3ccccc3c2=O)CC1.Cl (stereo not given) [AZELASTINE HYDROCHLORIDE]
Response: 4
